System: S1 zinc finger array (six-finger designed ZF) (artificial (designed))
experiment_description: EMSA
test_settings: EMSA: ZBA buffer (composition not given), 0.05% NP-40, 0.1 mg/ml BSA, 10% glycerol, 35-75 pM target, 1.5 h at room temperature; pH not given
assay_readout: pKd
Scale for pKd: -log10 of concentration given in mol/L; no unit attached.

Recall and state the measured pKd for CCTCTTCGCTATTACGCCAGCCATGCGTAGGGAGCCGCGGAACGTTCGATCGTACTCGAGTCAGGGTG (double strand) [S1 target site EMSA probe] .
8.30
